test: endothelial E-selectin expression blockers – imaging, HUVEC, immunofluorescence, MLSMR starter and 10KST1 sets, primary screen (AID 487); settings: HUVEC TNFalpha-induced E-selectin immunofluorescence imaging, at 2 µM; stronger effect = higher value;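 note: signal is fraction of cell area covered by stained E-selectin grains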
Cut-off -10% on inhibition, inclusive. At or above means rule met; below means rule not met.

Before answering, review these 4 worked examples.
compound | class name
CCOC(=O)CSc1cn2c(n1)CCC2 | rule not met
C=CCOc1cccc(C2/C(=C(\O)c3ccc(F)cc3)C(=O)C(=O)N2CCN(C)C)c1 (stereo unspecified) | rule met
CCCCN(C)Cc1c(C)[nH]c2c(Cl)cccc2c1=O | rule not met
CCc1nnc(NC(=O)CSc2nnc(Cc3ccccc3)n2-c2ccc(OC)cc2)s1 | rule met

API: the following record is the query input.
Request: # check: inhibition of CCC(C)NC(=O)C1(C)CCC(=O)N1Cc1ccccc1OC (stereo unspecified) is greater than or equal to -10%
Response: rule not met

---

test: reduction of polyQ htt aggregates in cells – imaging, exon1htt(103Q)mCFP cells, high-content imaging, primary screen (AID 483); details: exon1htt(103Q)mCFP cell line, aggregate imaging, at 2 µM; measured here: cell count, toxicity;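 note: compound exposure lasted 3 days before fixation; percent of the per-plate median nuclei count of sample wells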
measurement kind: nuclei count (%)
Numbers only, in %.

Consider the reported nuclei count for these compounds:
compound | units of measure | numeric result
O=C1NC(c2ccccc2)(C(F)(F)F)SC2=NCCCN12 (stereo not drawn) | % | 106
COc1cc(NC(=O)Cc2cccs2)ccc1-n1cnnn1 | % | 100
CCOP(=O)(c1ccc(N(C)C)cc1)C(O)c1cc(OC)c(OC)c(OC)c1 (stereo not drawn) | % | 113
Cc1ccc(Cn2c(C)nc3c(c2=O)c2nc4ccccc4nc2n3Cc2ccco2)cc1 | % | 111
COc1ccccc1-c1nc(C(F)(F)F)c(OC)o1 | % | 120
CN1C(=O)NC(NC(=O)C2CCCCC2)(C(F)(F)F)C1=O (stereo not drawn) | % | 97.1

Hi, could you look up nuclei count for each item in my list?
1. Cc1[nH]c(=O)[nH]c(=O)c1S(=O)(=O)N1CCN(c2cccc(Cl)c2)CC1
2. O=c1c2ccccc2sn1-c1ccc(S(=O)(=O)N2CCCCC2)cc1
3. CCCCOc1ccc(-c2nnn(CC(=O)Nc3ncc(CC(=O)OCC)s3)n2)cc1
4. CN(C)S(=O)(=O)n1cnc(-c2ccccc2)c1-c1ccccc1

Response:
[104, 115, 108, 100]

Hi, could you look up nuclei count for each item in my list?
1. Cn1c(=O)cc(SCC(=O)NCC2CCCO2)c2ccc(Cl)cc21 (stereo not drawn)
2. Cc1ccc(C)c(N2CCN(C(=O)C3CCN(S(=O)(=O)c4c(C)noc4C)CC3)CC2)c1

Response:
1: 107; 2: 77

---

assay: TLR3 IRF3 reporter activation blockers – cell-based, poly I:C stimulus, luciferase, 10K MLSCN set, primary screen (AID 602277); details: HEK293-TLR3 RL24 IRF3 luciferase reporter, at 10 µM, stronger effect = higher value
Exercise: for every item that follows, state its recorded inhibition.
Numbers only, in %.

Hi, could you look up inhibition for each item in my list?
1. COc1ccc(-n2cc(-c3ccccc3)c3c(N4CCN(CCO)CC4)ncnc32)cc1
2. Cc1noc(C)c1S(=O)(=O)N1CCC(C(=O)Nc2ccccn2)CC1
3. CCOc1ccc(-n2cc(C(=O)Nc3cccc(C)n3)c3cc(OC)c(OC)cc3c2=O)cc1
4. CC(CN1CCOCC1)(NS(=O)(=O)c1ccccc1)c1ccccc1 (stereo not given)
5. CCc1nc(SCC(=O)Nc2nccs2)c2oc3ccccc3c2n1

Response:
1: 25.2; 2: 21.1; 3: 25.9; 4: 7.26; 5: -8.08
